Biological target: BAZ2B PHD (Homo sapiens, UniProt Q9UIF8)
Construct: The small PHDs (∼6.5 kDa) of both BAZ2A and BAZ2B; made in house
Sequence (Q9UIF8 1931-1981 limits assumed): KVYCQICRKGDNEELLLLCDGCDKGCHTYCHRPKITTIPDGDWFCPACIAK
Assay: ITC, H3 peptides titrated into BAZ2B PHD (WT)
Type: binding
Settings: ITC, 25°C, 20 mM HEPES pH 8, 150 mM NaCl, 0.5 mM TCEP; peptide 1.5–3 mM into protein 80–120 µM; single-site fit; error from fit (Table 2); read-out: KD
No end group written: not given here.
RESULT_TYPE: Kd

>>> measurement("ARTAATARKS-NH2 [ARTAATARKS]")
"2.6 µM"
>>> measurement("ARTGGTARKS-NH2 [ARTGGTARKS]")
"166 µM"
>>> measurement("AATKQTARKS-NH2 [AATKQTARKS]")
"> 1000 µM"

Shift focus to the following entry.
## Task What does the record list as Kd for ARAKQTARKS-NH2 [ARAKQTARKS] ?
## Result > 5000 µM
